- measured_on: AURKA (human) (UniProt O14965)
- Sequence (O14965 whole entry, looked up): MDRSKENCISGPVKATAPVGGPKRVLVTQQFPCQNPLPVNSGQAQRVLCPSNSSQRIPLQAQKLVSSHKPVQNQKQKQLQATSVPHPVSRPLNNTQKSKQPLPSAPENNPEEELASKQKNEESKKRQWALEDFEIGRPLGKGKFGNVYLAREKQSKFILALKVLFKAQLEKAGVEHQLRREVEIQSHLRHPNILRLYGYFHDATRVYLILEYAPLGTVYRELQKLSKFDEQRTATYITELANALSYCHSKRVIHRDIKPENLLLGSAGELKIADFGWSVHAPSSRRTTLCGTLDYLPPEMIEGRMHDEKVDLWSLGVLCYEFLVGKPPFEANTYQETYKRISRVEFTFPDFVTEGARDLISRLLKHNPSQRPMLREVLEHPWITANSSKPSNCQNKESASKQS
- assay_info: split-luciferase competition binding
- measurement_parameters: compound 10.0 µM
Response key: yes (1) means inhibition >= 1%; no (0) means inhibition < 1%.

Before answering, review these 5 worked examples.
> print(dat)
                                item.smiles  group.label
1      c1ccc(-c2n[nH]cc2-c2ccnc3ccccc23)nc1       no (0)
2  CC(C)(C)n1nc(-c2cccc3ccccc23)c2c(N)ncnc21       no (0)
3      O=S(=O)(c1cccc2c(Cl)cccc12)N1CCCNCC1       no (0)
4    CC(C)N(CCC(=O)c1ccc2ccccc2c1)Cc1ccccc1       no (0)
5  CC(C)[C@H](CO)Nc1nc(Nc2ccc(C(=O)O)c(Cl)c2)c2ncn(C(C)C)c2n1      yes (1)

Exam item: Hi team, for "CN1CC[C@H](c2c(O)cc(O)c3c(=O)cc(-c4ccccc4Cl)oc23)[C@H](O)C1" , is the recorded inhibition at or above 1%?
Marked response: yes (1)

Exam item: Request: "CC(C)[C@H](CO)Nc1nc(Nc2cc(N)cc(Cl)c2)c2ncn(C(C)C)c2n1"
Marked response: no (0)

Exam item: Request: "O=C1c2ccccc2-c2n[nH]c3cccc1c23"
Marked response: no (0)

Exam item: Request: "Cn1cc(C2=C(c3ccc(Cl)cc3Cl)C(=O)NC2=O)c2ccccc21"
Marked response: yes (1)

Exam item: Request: "Cn1cc(C2=C(c3cn(CCCSC(=N)N)c4ccccc34)C(=O)NC2=O)c2ccccc21"
Marked response: yes (1)

###

- measured_on: DMPK (human) (UniProt Q09013)
- Sequence (Q09013 whole entry, looked up): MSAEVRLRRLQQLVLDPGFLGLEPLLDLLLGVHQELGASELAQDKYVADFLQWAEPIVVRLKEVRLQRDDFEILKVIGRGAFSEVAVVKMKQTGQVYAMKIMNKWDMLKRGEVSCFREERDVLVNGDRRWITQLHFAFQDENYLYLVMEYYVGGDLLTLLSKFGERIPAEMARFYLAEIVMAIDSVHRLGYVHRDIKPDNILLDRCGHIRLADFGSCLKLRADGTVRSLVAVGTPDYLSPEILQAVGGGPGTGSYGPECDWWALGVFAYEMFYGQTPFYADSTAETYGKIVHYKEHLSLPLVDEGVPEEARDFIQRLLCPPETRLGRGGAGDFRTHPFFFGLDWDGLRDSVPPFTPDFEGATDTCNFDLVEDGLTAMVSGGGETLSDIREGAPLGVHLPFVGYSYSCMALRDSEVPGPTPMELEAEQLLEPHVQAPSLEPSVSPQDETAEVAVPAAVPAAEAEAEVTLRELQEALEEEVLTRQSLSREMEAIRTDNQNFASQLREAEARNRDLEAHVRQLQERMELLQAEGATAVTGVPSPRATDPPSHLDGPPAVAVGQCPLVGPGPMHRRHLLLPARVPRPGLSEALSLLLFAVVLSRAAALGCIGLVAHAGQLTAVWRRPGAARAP
- assay_info: split-luciferase competition binding
- measurement_parameters: compound 10.0 µM
assay_endpoint: inhibition (%)
Give the number; % is assumed, so skip it.

Please review the following examples before continuing.
> print(dat)
                                item.smiles                    measured.on  assay.endpoint  scale.unit  observed.result
1  O=C(c1ccc(Nc2nccc(-c3cc4ccccc4s3)n2)cc1)N1CCC(N2CCCC2)CC1  DMPK (human) (UniProt Q09013)      inhibition           %               18
2  CS(=O)(=O)CCNCc1nc(-c2ccc3ncnc(Nc4ccc(OCc5cccc(F)c5)c(Cl)c4)c3c2)cs1  DMPK (human) (UniProt Q09013)      inhibition           %                5
3  CC(C)[C@H](CO)Nc1nc(Nc2cccc(Cl)c2)c2ncn(C(C)C)c2n1  DMPK (human) (UniProt Q09013)      inhibition           %               11

Exam item: Name the reported inhibition value associated with the molecule "O=S(=O)(NCCNC/C=C/c1ccc(Br)cc1)c1cccc2cnccc12"
Marked response: 0

Exam item: Request: "O=C1NC(=O)c2c1c1c3ccccc3n3c1c1c2c2ccccc2n1C1CCC3O1"
Marked response: 37

Exam item: Request: "O=c1cc(N2CCOCC2)oc2c(-c3ccccc3)cccc12"
Marked response: 0

Exam item: Request: "Cc1ccc(-c2nn(C(C)(C)C)c3ncnc(N)c23)cc1"
Marked response: 28

Exam item: Request: "CC(=O)c1c(O)c(C)c(O)c(Cc2c(O)c3c(c(C(=O)/C=C/c4ccccc4)c2O)OC(C)(C)C=C3)c1O"
Marked response: 23

Exam item: Request: "COc1cc2ncnc(Nc3ccc(F)c(Cl)c3)c2cc1OCCCN1CCOCC1"
Marked response: 13

Exam item: Request: "CC(C)(C)n1nc(-c2cccc3ccccc23)c2c(N)ncnc21"
Marked response: 27

Exam item: Request: "Cn1cc(C2=C(c3ccc(Cl)cc3Cl)C(=O)NC2=O)c2ccccc21"
Marked response: 8

Exam item: Request: "CC[C@@H](CO)Nc1nc(NCc2ccccc2)c2ncn(C(C)C)c2n1"
Marked response: 0

Exam item: Request: "O=C1NC(=O)c2c1c1c3ccccc3[nH]c1c1[nH]c3ccccc3c21"
Marked response: 30
